Below, each entry is listed alongside its reported CTG-3D luminescence at 96 h.
tested on: HCI-012 (organoid from a breast cancer xenograft); assay: CTG-3D luminescence at 96 h relative to day-0 seeding control (ratio to day 0); higher = more growth / less cytotoxicity; PDxO 3D drug screen, 96 h, CTG-3D normalised to day-0 seeding control.; conditions: 12.5 pM; days in culture: 201
Response field accepts a number only; no unit should be typed.

Guide cases for CTG-3D luminescence at 96 h, answers given:
compound	quantitative_result
CC[C@H](NC(=O)[C@H](C)NC)C(=O)N1C[C@@H](O)C[C@H]1Cc1c(-c2[nH]c3cc(F)ccc3c2C[C@@H]2C[C@H](O)CN2C(=O)[C@H](CC)NC(=O)[C@H](C)NC)[nH]c2cc(F)ccc12 [birinapant]	2.65
O=C(O)C1(C(=O)O)CCC1.[NH2-].[NH2-].[Pt+2] [carboplatin]	2.62

Query :: State CTG-3D luminescence at 96 h (HCI-012) of Nc1ccn([C@@H]2O[C@H](CO)[C@@H](O)C2(F)F)c(=O)n1 [gemcitabine] .
Result :: 2.68

====

Below, each entry is listed alongside its reported CTG-3D luminescence at 96 h.
system: HCI-019 (organoid from a triple-negative breast cancer xenograft); assay: CTG-3D luminescence at 96 h relative to day-0 seeding control (ratio to day 0); higher = more growth / less cytotoxicity; PDxO 3D drug screen, 96 h, CTG-3D normalised to day-0 seeding control.; details: 0.00025 µM; days in culture: 152
Response field accepts a number only; no unit should be typed.

molecule	quantitative_result
O=C(c1ccc(F)c(F)c1Nc1ccc(I)cc1F)N1CC(O)([C@@H]2CCCCN2)C1 [cobimetinib]	3.14

Query :: Please indicate CTG-3D luminescence at 96 h recorded for CNC(=O)c1cccc(-c2ccc3c(N4CCOC[C@@H]4C)nc(N4CCOC[C@@H]4C)nc3n2)c1 [vistusertib]
Result :: 2.65

Query :: Please indicate CTG-3D luminescence at 96 h recorded for CCc1c2c(nc3ccc(O)cc13)-c1cc3c(c(=O)n1C2)COC(=O)[C@]3(O)CC [SN-38]
Result :: 3.38

====

test system: HCI-010 (organoid from a breast cancer xenograft); experiment: CTG-3D luminescence at 96 h relative to day-0 seeding control (ratio to day 0); higher = more growth / less cytotoxicity; PDxO 3D drug screen, 96 h, CTG-3D normalised to day-0 seeding control.; settings: 10 µM; days in culture: 65
Rule: CTG-3D luminescence at 96 h of 0.2 or more gives YES; anything lower gives NO.

compound	discrete_label
C[C@]12CC[C@@H]3c4ccc(O)cc4C[C@@H](CCCCCCCCC[S+]([O-])CCCC(F)(F)C(F)(F)F)[C@H]3[C@@H]1CC[C@@H]2O (stereo not given in full)	YES
Cc1cc(Nc2ncc(Cl)c(Nc3ccccc3S(=O)(=O)C(C)C)n2)c(OC(C)C)cc1C1CCNCC1	NO
C=CC(=O)N1CCC[C@@H](n2nc(-c3ccc(Oc4ccccc4)cc3)c3c(N)ncnc32)C1	YES
Nc1ccn([C@@H]2O[C@H](CO)[C@@H](O)C2(F)F)c(=O)n1	NO
CC[C@H](NC(=O)[C@H](C)NC)C(=O)N1C[C@@H](O)C[C@H]1Cc1c(-c2[nH]c3cc(F)ccc3c2C[C@@H]2C[C@H](O)CN2C(=O)[C@H](CC)NC(=O)[C@H](C)NC)[nH]c2cc(F)ccc12	YES

As a next step, examine the compound that follows.
Query :: Entry CCN1CCN(Cc2ccc(Nc3ncc(F)c(-c4cc(F)c5nc(C)n(C(C)C)c5c4)n3)nc2)CC1 : is its CTG-3D luminescence at 96 h no less than 0.2?
Result :: NO

====

tested on: HCI-008 (organoid from a HER2-enriched breast cancer xenograft); test: CTG-3D luminescence at 96 h relative to day-0 seeding control (ratio to day 0); higher = more growth / less cytotoxicity; PDxO 3D drug screen (set 2), 96 h, CTG-3D normalised to day-0 seeding control.; conditions: 12.5 pM; days in culture: 382
Below, each entry is listed alongside its reported CTG-3D luminescence at 96 h.
Response field accepts a number only; no unit should be typed.

Guide cases for CTG-3D luminescence at 96 h, answers given:
record_smiles	CTG-3D luminescence at 96 h
CO[C@H]1C[C@@H]2CC[C@@H](C)[C@@](O)(O2)C(=O)C(=O)N2CCCC[C@H]2C(=O)O[C@H]([C@H](C)C[C@@H]2CC[C@@H](OCCO)[C@H](OC)C2)CC(=O)[C@H](C)/C=C(\C)[C@@H](O)[C@@H](OC)C(=O)[C@H](C)C[C@H](C)/C=C/C=C/C=C/1C	1.54
Nc1cc(C(F)(F)F)c(-c2cc(N3CCOCC3)nc(N3CCOCC3)n2)cn1	1.52
CC(=O)O[C@@]12CO[C@@H]1C[C@H](O)[C@@]1(C)C(=O)[C@H](O)C3=C(C)[C@@H](OC(=O)[C@H](O)[C@@H](NC(=O)OC(C)(C)C)c4ccccc4)C[C@@](O)([C@@H](OC(=O)c4ccccc4)[C@H]21)C3(C)C	1.56

Now look at this entry.
Query :: Please indicate CTG-3D luminescence at 96 h recorded for O=C(c1cc(Cc2n[nH]c(=O)c3ccccc23)ccc1F)N1CCN(C(=O)C2CC2)CC1
Result :: 1.49

====

Below, each entry is listed alongside its reported CTG-3D luminescence at 96 h.
system: HCI-015 (organoid from a triple-negative breast cancer xenograft); experiment: CTG-3D luminescence at 96 h relative to day-0 seeding control (ratio to day 0); higher = more growth / less cytotoxicity; PDxO 3D drug screen, 96 h, CTG-3D normalised to day-0 seeding control.; settings: 10 µM; days in culture: 218
Response field accepts a number only; no unit should be typed.

Guide cases for CTG-3D luminescence at 96 h, answers given:
molecule	CTG-3D luminescence at 96 h
O=C(O)C1(C(=O)O)CCC1.[NH2-].[NH2-].[Pt+2] [carboplatin]	0.685
CNC(=O)c1cccc(-c2ccc3c(N4CCOC[C@@H]4C)nc(N4CCOC[C@@H]4C)nc3n2)c1 [vistusertib]	0.543
NC1(C(=O)N[C@@H](CCO)c2ccc(Cl)cc2)CCN(c2nc[nH]c3nccc2-3)CC1 [capivasertib]	0.878

Query :: Please indicate CTG-3D luminescence at 96 h recorded for CN(Cc1cnc2nc(N)nc(N)c2n1)c1ccc(C(=O)N[C@@H](CCC(=O)O)C(=O)O)cc1 [methotrexate]
Result :: 1.63

====

system: HCI-027 (organoid from a triple-negative breast cancer xenograft); test: CTG-3D luminescence at 96 h relative to day-0 seeding control (ratio to day 0); higher = more growth / less cytotoxicity; PDxO 3D drug screen, 96 h, CTG-3D normalised to day-0 seeding control.; details: 1 µM; days in culture: 194
Rule: CTG-3D luminescence at 96 h of 1 or more gives criterion met; anything lower gives criterion not met.

Use the examples below as a reference point.
record_smiles	target_entity	discrete_label
CC(=O)O[C@H]1C(=O)[C@@]2(C)[C@H]([C@H](OC(=O)c3ccccc3)[C@]3(O)C[C@H](OC(=O)[C@H](O)[C@@H](NC(=O)c4ccccc4)c4ccccc4)C(C)=C1C3(C)C)[C@]1(OC(C)=O)CO[C@@H]1C[C@@H]2O	HCI-027	criterion not met
CC[C@H](NC(=O)[C@H](C)NC)C(=O)N1C[C@@H](O)C[C@H]1Cc1c(-c2[nH]c3cc(F)ccc3c2C[C@@H]2C[C@H](O)CN2C(=O)[C@H](CC)NC(=O)[C@H](C)NC)[nH]c2cc(F)ccc12	HCI-027	criterion met
CNC(=O)c1cccc(-c2ccc3c(N4CCOC[C@@H]4C)nc(N4CCOC[C@@H]4C)nc3n2)c1	HCI-027	criterion met
O=C(/C=C/c1cccnc1)NCCCCC1CCN(C(=O)c2ccccc2)CC1	HCI-027	criterion not met
NC1(C(=O)N[C@@H](CCO)c2ccc(Cl)cc2)CCN(c2nc[nH]c3nccc2-3)CC1	HCI-027	criterion met

As a next step, examine the compound that follows.
Query :: Entry CC(C)(C(=O)NCC(F)(F)C(F)(F)F)C(=O)N[C@@H]1C(=O)Nc2ccccc2-c2ccccc21 : is its CTG-3D luminescence at 96 h no less than 1?
Result :: criterion not met

====

Below, each entry is listed alongside its reported CTG-3D luminescence at 96 h.
test system: HCI-003.E2 (organoid from an ER-positive breast cancer xenograft); assay: CTG-3D luminescence at 96 h relative to day-0 seeding control (ratio to day 0); higher = more growth / less cytotoxicity; PDxO 3D drug screen, 96 h, CTG-3D normalised to day-0 seeding control.; settings: 0.005 µM
Response field accepts a number only; no unit should be typed.

Guide cases for CTG-3D luminescence at 96 h, answers given:
compound	quantitative_result
CC(C)n1nc(-c2ccc3oc(N)nc3c2)c2c(N)ncnc21 [sapanisertib]	1.59
CNC(=O)c1cccc(-c2ccc3c(N4CCOC[C@@H]4C)nc(N4CCOC[C@@H]4C)nc3n2)c1 [vistusertib]	2.3
Cc1nc(-c2cn3c(n2)-c2ccc(-c4cnn(C(C)(C)C(N)=O)c4)cc2OCC3)n(C(C)C)n1 [taselisib]	1.77

Now look at this entry.
Query :: Please indicate CTG-3D luminescence at 96 h recorded for CC(C)(C(=O)NCC(F)(F)C(F)(F)F)C(=O)N[C@@H]1C(=O)Nc2ccccc2-c2ccccc21
Result :: 2.01
